test system: transactivating tegument protein VP16 (Human herpesvirus 1), Gal4-VP16 luciferase reporter; test: VP16 transactivation inhibitors, counter-screen for SRC3 inhibitor project, cell-based, luminescence, high throughput (AID 588794); settings: mammalian cells, VP16-driven luciferase reporter luminescence; at 3.6 µM
The source made the active and inactive calls. Rule as the data show it: active = inhibition above about 30%; inactive = the rest.
Field 'call' accepts 1 for active, -1 for inactive

Compound	Label Value
CC1CCc2c(sc(NC(=O)c3ccco3)c2C(=O)O)C1 (stereo unspecified)	1
Cc1ccc(S(=O)(=O)N2CCN(S(C)(=O)=O)CC2)cc1	-1
c1ccc(-n2nnnc2NCCCN2CCOCC2)cc1	-1
COc1ccc(C(=O)Nc2cnn(Cc3ccc(Cl)cc3)c2)cc1OC	1

Assay outcome for "Cc1sc2ncnc(N3CCC(C(=O)Nc4ccccc4C(C)(C)C)CC3)c2c1C" : what was it?
-1

Write down the call the test reported for this compound. Item: c1ccc(-c2csc3ncnc(NCC4COc5ccccc5O4)c23)cc1 (stereo unspecified)
1

Could you kindly confirm the outcome this assay logged for "COc1ccc(N2CCN(c3nc(NCCc4ccc(OC)c(OC)c4)nc(OC)n3)CC2)cc1" ?
-1

What outcome does the record of this test show for "S=C(c1ccc(-c2ccccc2)cc1)N1CCOCC1" ?
-1

Please let me know the test result on file for "c1ccc2cc3c(NCCN4CCOCC4)ccnc3cc2c1" .
1

Could you check what this test reported for "CCCn1c(N)c(C(=O)CSc2ncc(C(F)(F)F)cc2Cl)c(=O)[nH]c1=O" ?
-1

Hi, sorry to bother you, what did the test record for "Cc1cc(C)n(Cc2ccc(NC(=O)c3ccc(COc4ccccc4Br)cc3)cc2)n1" ?
-1

* * *

assay: VP16 transactivation reporter inhibitors, counter-screen for LRH-1 inverse agonist project, cell-based, luminescence, high throughput (AID 651615); details: Gal4-VP16 luciferase reporter cells, at 3.6 µM
Calls of active or inactive are those of the source. No stated cut-off is given here; in the data, active means inhibition above about 33%; inactive means the rest.
Pick one: active, inactive

Before answering, review these 2 worked examples.
Compound	Label Value
CC1=[N+](C)c2c(ccc3cccnc23)C1(C)C	inactive
O=[N+]([O-])c1ccc(N2CCCC2)cc1N1CCCC1	inactive

Outcome? "CC(=O)Nc1sc2c(c1-c1nc3ccccc3s1)CN(C(C)C)CC2"
active

Per the records of this test, what outcome belongs to "C=CC[n+]1c(/C=C2\C=Cc3cc(C)ccc3N2CC)ccc2ccccc21" ?
active

Please state the recorded outcome for this compound: "O=C(COC(=O)Cc1ccccc1[N+](=O)[O-])NCc1ccc(Cl)cc1"
inactive

* * *

system: transactivating tegument protein VP16 (Human herpesvirus 1); experiment: VP16 transactivation reporter inhibitors, counter-screen for SRC2 inhibitor project, cell-based, luminescence, single concentration (AID 652007); details: cell-based VP16 transactivation luciferase reporter, at 8.9 µM
Active and inactive are the calls of the source. Cut-off read from the data, not from the text of the source: active = inhibition above about 36%; inactive = the rest.
Hello, when you answer, please use one of the following outcomes: 1.0 = active, 0.0 = inactive

Solved cases (3 shown):
Line Notation	Target	Label Value
C=CCN=C1NN=C(c2cc(C)n(CCOC)c2C)CS1	transactivating tegument protein VP16 (Human herpesvirus 1)	1.0
COc1ccc(CNC(=O)COC(=O)/C=C/c2cccc(Br)c2)cc1OC	transactivating tegument protein VP16 (Human herpesvirus 1)	0.0
Cn1nnnc1Sc1ncnc2scc(-c3cccc(Br)c3)c12	transactivating tegument protein VP16 (Human herpesvirus 1)	0.0

What was the test verdict on "CCOc1ccc(NC(=S)NC(=O)/C=C/c2ccc(OC)cc2)c([N+](=O)[O-])c1" ?
0.0

What did the test return for "CC(C)(CN1CCC(Cc2ccccc2)CC1)NS(=O)(=O)c1ccccc1" ?
0.0

// return assay outcome for "CCCCc1ccc(S(=O)(=O)N/N=C(/C)c2ccncc2)cc1"
0.0

* * *

target: Signal transducer and activator of transcription 3 (Homo sapiens) (UniProt P40763); assay: STAT3 reporter activation by STAT1 hits, confirmation, counter-screen for STAT1 activator project, U3A cells, luciferase, luminescence (AID 1316); settings: IL-6, luminescence, at 5.7 µM, active compounds read high, 100 = IL-6 alone, no compound effect, cells lack STAT1;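 also: 0% = no luminescence and 100% = median IL-6 plus DMSO wells; higher means more STAT3 reporter activation so hits are non-selective activators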
This is one part of the list.
Reported values of activation (% of control) for individual entries
Numbers only here, please. The scale is %.

Below are worked cases with known answers.
Compound	Target	Outcome Measure	Value Unit	Measurement
Cc1cc(C)c2nc(NC(=O)C3CCCO3)sc2c1 (configuration not stated)	Signal transducer and activator of transcription 3 (Homo sapiens) (UniProt P40763)	activation (% of control)	%	195
CCc1ccc(NC2Nc3cc(C)nn3S2)cc1 (configuration not stated)	Signal transducer and activator of transcription 3 (Homo sapiens) (UniProt P40763)	activation (% of control)	%	126
Cc1cccc(NC(=O)Nc2ccc3c(c2)OCO3)n1	Signal transducer and activator of transcription 3 (Homo sapiens) (UniProt P40763)	activation (% of control)	%	121
COc1ccccc1-c1cc(C(=O)N2CCCCC2)no1	Signal transducer and activator of transcription 3 (Homo sapiens) (UniProt P40763)	activation (% of control)	%	116
CCOc1ccc2nc(C(=O)N3CCCC(C)C3)sc2c1 (configuration not stated)	Signal transducer and activator of transcription 3 (Homo sapiens) (UniProt P40763)	activation (% of control)	%	97.8
COc1ccc(C2Nc3ccccc3C(=O)N2c2ccc(Cl)cc2)cc1Cn1cc([N+](=O)[O-])cn1 (configuration not stated)	Signal transducer and activator of transcription 3 (Homo sapiens) (UniProt P40763)	activation (% of control)	%	120
Clc1ccc(Nc2nc(-c3cccs3)cs2)nc1	Signal transducer and activator of transcription 3 (Homo sapiens) (UniProt P40763)	activation (% of control)	%	133
Nc1ncc(-c2cc3ccccc3oc2=O)s1	Signal transducer and activator of transcription 3 (Homo sapiens) (UniProt P40763)	activation (% of control)	%	110

Field: activation (% of control) (Signal transducer and activator of transcription 3 (Homo sapiens) (UniProt P40763)). Entry: "Cc1noc(C)c1/C=N/Nc1ccc2ccccc2n1"
149

Quick check: activation (% of control) on Signal transducer and activator of transcription 3 (Homo sapiens) (UniProt P40763), item "CC(C)(C)C(=O)c1cnc(Nc2ccccc2)s1" ?
105

activation (% of control) of "O=C(NCCCn1ccnc1)c1cc(-c2ccccc2)on1" on Signal transducer and activator of transcription 3 (Homo sapiens) (UniProt P40763)?
132

Please tell me: activation (% of control) of "CN(C)c1ccnc2sc(C(=O)c3ccccc3)c(N)c12" , system Signal transducer and activator of transcription 3 (Homo sapiens) (UniProt P40763)?
109

* * *

assay: VP16 transactivation inhibitors, counter-screen for SRC1 inhibitor project, cell-based, luminescence, high throughput (AID 588824); details: cell-based VP16 transactivation luciferase luminescence; at 3.6 µM
Activity calls are given as the source filed them. Cut-off read from the data, not from the text of the source: active = inhibition above about 25%; inactive = the rest.
Entry note: the call must match one of active, inactive

Example entries begin here.
Compound	Label Value
CCn1c(C)cc(C(=O)CN2C(=O)c3ccccc3S2(=O)=O)c1C	inactive
CCOC(=O)c1ccc(S(=O)(=O)N2CCN(C(C)=O)CC2)cc1	inactive
CC(=NNC(=S)Nc1ccccc1)c1ccccn1	active
O=C(COc1ccc(Cl)cc1Cl)Nc1ccccn1	active
COc1cc(/C=N/NC(=O)NC23CC4CC(CC(C4)C2)C3)ccc1OCC(N)=O	inactive

Next compound, please.
Status in this test for CCOc1ncccc1C(=O)NC(C)CCc1ccccc1 (stereo unspecified) ?
inactive

* * *

molecular target: Nuclear receptor coactivator 3 (Homo sapiens); experiment: SRC3 coactivator transcriptional activity inhibitors, confirmation, cell-based, luminescence, quadruplicate (AID 588792); details: HEK293 GAL4-SRC3 luciferase reporter, at 3.6 µM, active compounds read high;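 also: 0% = DMSO treated cells and 100% = gossypol at 36 µM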
Quick rule: inhibition of at least 10% means fulfilled, below that means not fulfilled.

Compound	Label Value
Cc1cccc(C(=O)Nc2sc3c(c2C(=O)O)CCCC3)c1	fulfilled

API: above_or_equal(metric=inhibition, cutoff=10%) for item "Cc1ccc(C(=O)O/N=C(\N)c2ccccn2)c(Cl)c1"
fulfilled

Would you say CCN(CC)c1ccc(C(NC(=O)C(C)C)c2ccc3cccnc3c2O)cc1 (stereo unspecified) shows inhibition at minimum 10%?
fulfilled

// inclusive: inhibition at least 10%? input: CCC(O)CC(C(=O)NNc1ccccc1)C(=O)NNc1ccccc1 (stereo unspecified)
not fulfilled

Determine whether this compound has inhibition no lower than 10%: "CCN(CC)c1ccc(/C=N/NC(=O)c2cccc(S(=O)(=O)N3CCOCC3)c2)c(O)c1"
fulfilled

Kindly determine if inhibition recorded for "O=C(CN1C(=O)c2ccccc2S1(=O)=O)c1ccc(Cl)cc1Cl" is above or exactly 10%.
fulfilled

* * *

assay: VP16 transactivation inhibitors, counter-screen for SRC1 inhibitor project, cell-based, luminescence, high throughput (AID 588824); settings: cell-based VP16 transactivation luciferase luminescence; at 3.6 µM; active compounds read high
Outcome Measure: inhibition (%)
Give just the numeric value; % need not be written.

Use the examples below as a reference point.
Compound	Value Unit	inhibition
Cc1cccc(NC(=O)c2cc(S(=O)(=O)N(C)c3ccc(F)cc3)ccc2Cl)n1	%	-4.3
COC1CC(C)C(OC)c2cc(O)cc(c2O)NC(=O)C(C)=CC=CC(C)C(OC(N)=O)C(C)=CC(C)C1OC (stereo not given)	%	77
CCN(CC)c1ccc(/C=C/c2cccc[n+]2C)c(OC)c1	%	77.1
CN(C)C(=O)c1cccc(-c2cnc3cccnn23)c1	%	7.53

Turning now to a further compound:
GET /values?readout=inhibition&item= "Cc1ccc(C)c(NC(=O)c2ccccc2NS(=O)(=O)c2cc([N+](=O)[O-])ccc2C)c1"
22

Values from PubChem BioAssay
